target: Thymidine kinase (Human herpesvirus 1)
protocol notes: Inhibition of HSV-1 Thymidine kinase
assay metric: IC50

- CCO[C@@H]1O[C@@H](n2cc(C)c(=O)[nH]c2=O)C[C@H]1O: > 50 µM

Request: I'd like to know its IC50. The compound in question is `CCCO[C@@H]1O[C@@H](n2cc(C)c(=O)[nH]c2=O)C[C@H]1O`
Response: > 50 µM

Request: `Cc1cn([C@H]2C[C@H](O)[C@@H](OCCCc3ccccc3)O2)c(=O)[nH]c1=O`
Response: 10 µM

Request: `CCCO[C@H]1O[C@@H](n2cc(C)c(=O)[nH]c2=O)C[C@@H]1O`
Response: > 50 µM

Request: `CCO[C@H]1O[C@@H](n2cc(C)c(=O)[nH]c2=O)C[C@@H]1O`
Response: 50 µM

Request: `C#C[C@H]1O[C@@H](n2cc(C)c(=O)[nH]c2=O)C[C@@H]1O`
Response: 3 µM

Request: `Cc1cn([C@H]2C[C@@H](O)[C@H](OCCCc3ccccc3)O2)c(=O)[nH]c1=O`
Response: > 50 µM

Request: `Cc1cn([C@H]2C[C@@H](O)[C@H](OC(C)(C)C)O2)c(=O)[nH]c1=O`
Response: > 50 µM

Request: `Cc1cn([C@H]2C[C@H](O)[C@@H](OC(C)(C)C)O2)c(=O)[nH]c1=O`
Response: > 50 µM
